Sequence of the target: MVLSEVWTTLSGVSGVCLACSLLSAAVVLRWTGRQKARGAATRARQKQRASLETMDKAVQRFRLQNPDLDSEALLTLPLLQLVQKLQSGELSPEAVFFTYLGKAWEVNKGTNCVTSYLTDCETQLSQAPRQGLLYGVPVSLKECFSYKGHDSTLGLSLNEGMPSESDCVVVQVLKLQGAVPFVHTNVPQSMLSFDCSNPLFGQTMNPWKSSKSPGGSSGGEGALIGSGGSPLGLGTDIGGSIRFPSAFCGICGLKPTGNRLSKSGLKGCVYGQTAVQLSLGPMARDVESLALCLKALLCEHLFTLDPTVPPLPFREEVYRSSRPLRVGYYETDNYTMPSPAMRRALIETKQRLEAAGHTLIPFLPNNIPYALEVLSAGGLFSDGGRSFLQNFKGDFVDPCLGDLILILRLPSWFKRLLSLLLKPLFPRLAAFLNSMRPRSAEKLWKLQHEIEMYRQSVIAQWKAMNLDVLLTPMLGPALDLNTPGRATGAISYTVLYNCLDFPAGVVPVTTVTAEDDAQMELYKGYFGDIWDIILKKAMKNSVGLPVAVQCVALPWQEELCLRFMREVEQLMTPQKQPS
MEASURE: IC50 (nM)
I only need the number, in nM, no unit after it.

Input: # get_value(readout='IC50', item= O=C(Nc1cccnc1)N1CCCC(Cc2cccc(Oc3ccc(Cl)cc3)c2)C1 (single isomer, unassigned; (-)) )
Output: 27

Input: # get_value(readout='IC50', item= O=C(Nc1noc2ccccc12)N1CCCC(Cc2ccc(C(F)(F)F)cc2)C1 (stereo not shown) )
Output: 183

Input: # get_value(readout='IC50', item= O=C(Nc1cnc2cccnn12)N1CCCC(Cc2cccc(Oc3ccc(F)cc3)c2)C1 (stereo not shown) )
Output: 7

Input: # get_value(readout='IC50', item= O=C(Nc1cccnc1)N1CCCC(Cc2cccc(OC(F)(F)F)c2)C1 (stereo not shown) )
Output: 450

Input: # get_value(readout='IC50', item= O=C(Nc1cccnc1)N1CCCC(Cc2cccc(Oc3ccc(F)cc3)c2)C1 (stereo not shown) )
Output: 19

Input: # get_value(readout='IC50', item= O=C(Nc1cccnc1)N1CCCC(Cc2ccc(Cl)c(Cl)c2)C1 (stereo not shown) )
Output: 180
